# Study Target: B2-AR (Homo sapiens, UniProt P07550)
# Construct: expressed in transfected cells; host or cells: CHO-K1
# Sequence (P07550 whole entry, species assumed): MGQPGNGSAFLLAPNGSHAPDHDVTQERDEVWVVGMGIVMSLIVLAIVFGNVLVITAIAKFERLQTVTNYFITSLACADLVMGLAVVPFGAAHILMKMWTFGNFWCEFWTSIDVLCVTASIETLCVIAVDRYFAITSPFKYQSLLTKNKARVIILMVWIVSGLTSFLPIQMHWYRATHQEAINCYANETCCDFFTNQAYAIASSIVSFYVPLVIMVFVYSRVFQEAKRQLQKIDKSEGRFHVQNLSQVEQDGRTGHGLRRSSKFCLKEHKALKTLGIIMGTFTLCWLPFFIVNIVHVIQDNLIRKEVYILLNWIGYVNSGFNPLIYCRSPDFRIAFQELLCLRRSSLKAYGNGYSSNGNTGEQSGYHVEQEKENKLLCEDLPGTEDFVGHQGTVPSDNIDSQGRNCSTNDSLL
# Experimental Details: cAMP Gs dynamic HTRF assay, cells expressing beta-adrenergic receptor (CHO-K1), B2-AR
# Assay type: cell-based
# Condition Set: CHO-K1, CHO-K1 cells, relative to full agonist isoproterenol; read-out: Emax (% iso) (%) [B2-AR]
# Procedure: cAMP homogeneous time-resolved fluorescence (HTRF): experimental methods. Compound efficacy is determined using the cAMP Gs dynamic HTRF assay (Cisbio, catalog #62AM4PEC) largely following the manufacturer's instructions, also detailed below. Standard serial dilution curves are 10-point, 5-fold dilutions starting from a highest concentration of 10 μM. […]
Listed here are compounds together with their documented Emax.
Measure Name: Emax

>>> result("CC(C)(CO)NC[C@H](O)c1cc(C#N)cc2[nH]ncc12")
"> 90%"
>>> result("CC(C)(C)NC[C@H](O)c1ccc(N)nn1")
"> 90%"
>>> result("CC1(NC[C@H](O)c2cc(C#N)cc3[nH]ncc23)CC1")
"> 90%"
>>> result("CC(C)[C@@H](C)NC[C@H](O)c1cccc2[nH]nc(F)c12")
"> 90%"
>>> result("COc1cc([C@@H](O)CNC(C)(C)C)c2cn[nH]c2c1F")
"< 50%"
>>> result("CCC(C)(C)NC[C@H](O)c1cc(C#N)cc2[nH]ncc12")
"> 90%"
>>> result("CC(C)(CO)NC[C@H](O)c1ccc(Cl)c2[nH]ncc12")
"70 to 90%"
>>> result("CC(C)CNC[C@H](O)c1cccc2[nH]cc(F)c12")
"70 to 90%"
>>> result("Cc1ncccc1[C@@H](O)CNC1(C)CC1")
"> 90%"
>>> result("Cc1ccc([C@@H](O)CNC(C)(C)C)c2c(F)n[nH]c12")
"70 to 90%"
>>> result("Cc1nc(N)ncc1[C@@H](O)CNC(C)(C)C")
"> 90%"
